test: LogP by HPLC on reversed phase columns (EEC directive 79/831 Annex V.A8)
Assay type: physicochemical
measurement_conditions: reversed phase HPLC column, method [b]: LC-UV, neutral range, 0.001 molar ammonium acetate solution in water and acetonitrile as eluent; read-out: LogP
endpoint_label: chromatographic logP
Answer with a bare number; do not write a unit.

Look up chromatographic logP for this compound: Fc1ccc(C2(C3(Oc4c(F)cc(F)cc4F)CC3)CO2)c(F)c1 (stereo not shown)
4.26

###

LogP overview
test: LogP by HPLC on reversed phase columns (EEC directive 79/831 Annex V.A8)
Format: physicochemical
measurement_conditions: method [a]: LC-UV, acidic range, 0.1% formic acid in water and acetonitrile as eluent

[[record]]
compound = "Fc1ccc(C2(C3(Oc4cc(F)c(Br)c(F)c4)CC3)CO2)c(F)c1 (stereo not shown)"
recorded_value = "4.86^[a]"

[[record]]
compound = "O=C(c1ccc(F)cc1F)C1(Oc2c(F)ccc(Cl)c2F)CC1"
recorded_value = "4.27^[a]"

[[record]]
compound = "OC(Cn1cncn1)(c1ccc(F)cc1F)C1(Oc2cc(F)c(Br)c(F)c2)CC1 (racemic)"
recorded_value = "3.85^[a]"


Give the measured LogP of Fc1ccc(C2(C3(Oc4c(Cl)cc(SC(F)(F)F)cc4Cl)CC3)CO2)c(F)c1 (stereo not shown) .
6.07^[a]

Item under review: O=C(c1ccc(F)cc1F)C1(Oc2cc(F)c(Br)c(F)c2)CC1 . Reported LogP?
4.54^[a]

Looking for the measured LogP of Fc1ccc(C2(C3(Oc4c(F)ccc(Cl)c4F)CC3)CO2)c(F)c1 (racemic) , can you help?
4.65^[a]

Give the measured LogP of Fc1ccc(C2(C3(Oc4ccc(F)c(F)c4F)CC3)CO2)c(F)c1 (stereo not shown) .
4.28^[a]

# input compound: OC(Cn1cncn1)(c1ccc(F)cc1F)C1(Oc2c(F)cc(Cl)cc2F)CC1 (single isomer, unassigned) [Example I-20] ; wanted: its LogP
3.55^[a]

Report LogP for O=C(c1ccc(F)cc1F)C1(Oc2c(F)cc(Cl)cc2F)CC1 please.
4.44^[a]

Form field: reported LogP of OC(Cn1cncn1)(c1ccc(F)cc1F)C1(Oc2c(Cl)cc(OC(F)(F)F)cc2Cl)CC1 (racemic)
4.62^[a]

###

test: LogP by HPLC on reversed phase columns (EEC directive 79/831 Annex V.A8)
Assay type: physicochemical
measurement_conditions: method [a]: LC-UV, acidic range, 0.1% formic acid in water and acetonitrile as eluent
endpoint_label: LogP

Examples with answers:
[[record]]
compound = "O=C(c1ccc(Cl)cc1F)C1(Oc2c(F)cc(Br)cc2F)CC1 [IV-21]"
endpoint_label = "LogP"
recorded_value = "5.05^[a]"

[[record]]
compound = "OC(Cn1cncn1)(c1ccc(F)cc1F)C1(Oc2c(F)cc(Cl)cc2F)CC1 (single isomer, unassigned) [Example I-19]"
endpoint_label = "LogP"
recorded_value = "3.55^[a]"

[[record]]
compound = "OC(Cn1cncn1)(c1ccc(F)cc1F)C1(Oc2c(Cl)cc(SC(F)(F)F)cc2Cl)CC1 (racemic) [Example I-11]"
endpoint_label = "LogP"
recorded_value = "4.97^[a]"

[[record]]
compound = "O=C(c1ccc(F)cc1F)C1(Oc2c(Cl)cc(Cl)cc2Cl)CC1 [IV-4]"
endpoint_label = "LogP"
recorded_value = "5.34^[a]"

[[record]]
compound = "Fc1ccc(C2(C3(Oc4c(F)cc(Br)cc4F)CC3)CO2)c(F)c1 (racemic) [Example V-03]"
endpoint_label = "LogP"
recorded_value = 4.86

[[record]]
compound = "O=C(c1ccc(F)cc1F)C1(Oc2c(F)ccc(F)c2F)CC1 [IV-6]"
endpoint_label = "LogP"
recorded_value = "3.99^[a]"


Recorded LogP for OC(Cn1cncn1)(c1ccc(F)cc1F)C1(Oc2c(F)ccc(F)c2F)CC1 (racemic) [Example I-13] , please?
3.14^[a]

LogP for OC(Cn1cncn1)(c1ccc(F)cc1F)C1(Oc2c(Cl)cc(Cl)cc2Cl)CC1 (racemic) [Example I-07] ?
4.49^[a]

Fill blank: measured LogP of the compound COC(Cn1cncn1)(c1ccc(F)cc1F)C1(Oc2c(Cl)cc(OC(F)(F)F)cc2Cl)CC1 (racemic) [Example I-18] is ____.
4.87^[a]

Given the compound O=C(c1ccc(F)cc1F)C1(Oc2c(Cl)cc(Br)cc2Cl)CC1 [IV-7] , what is its reported LogP?
5.01^[a]

Can you look up the measured LogP of O=C(c1ccc(F)cc1F)C1(Oc2c(F)ccc(F)c2Cl)CC1 [IV-20] for me?
4.25^[a]

// LogP lookup, key: OC(Cn1cncn1)(c1ccc(F)cc1F)C1(Oc2c(Cl)cc(C(F)(F)F)cc2Cl)CC1 (racemic) [Example I-10]
4.46^[a]
